# Tested on: HCT-116 colon
# Test description: NCI-60 one-dose screen, 48 h
# Condition info: 10 µM unless noted
The panel holds about 83,000 compounds, 20% with a hit somewhere; the sample as a whole holds those more often. Calls of active or inactive are those of the source. The calls were made as follows: active = growth percent below 10; inactive = the rest.
Respond using exactly one of the listed classes: Yes = active, No = inactive

Completed entries (count: 5):
Compound	Class
C[C@@H]1O[C@@H](O[C@@H]2C[C@H](c3ccc4c(c3O)C(=O)C3=C(C4=O)[C@@]4(O)C(=O)C[C@](C)(O)C[C@@]4(O)C=C3)O[C@H](C)[C@H]2O)C[C@H](O)[C@@H]1O	No
Cc1ccc(-c2nc(C(Cl)Cl)nc3cc(C)nn23)cc1	Yes
CCN(CC)c1ccc(/C=C\c2cc(C)c3cc(C)ccc3n2)cc1	Yes
C#CCn1cnc2c(Nc3cccc(NC(=O)CCl)c3)ncnc21	No
C=CCN=C(N)SCCCCCCSC(N)=NCC=C	No

Q. In this assay, the call recorded for "O=C(CSc1nc2ccc([N+](=O)[O-])cc2[nH]1)Nc1ccc(Br)cc1" was what?
A. No

Q. // return assay outcome for "OC(c1ccccc1)(c1ccccc1)c1ccccc1-c1ccccc1"
A. No

Q. Recorded test call requested for "COc1cc2nc(Nc3cccc(F)c3)nc(Nc3cc(C)[nH]n3)c2cc1OC"
A. Yes

###

# Test system: NCI-H322M lung
# Test description: NCI-60 one-dose screen, 48 h (100 = growth as untreated, 0 = no growth, -100 = all killed)
# Condition info: 10 µM unless noted
The panel holds about 83,000 compounds, 20% with a hit somewhere; the sample as a whole holds those more often.
// class assignment uses growth with these ranges: band 1 (below 40%), band 2 (40% to below 80%), band 3 (80% or more)

Worked set:
Molecule	System	Class
COc1ccc2cc(Cn3cc[n+](Cc4ccc5ccccc5c4)c3)ccc2c1	NCI-H322M lung	band 2
C=CC(=O)N1CCN(c2ccc3cccc(NC(=O)c4cnc(C)cn4)c3n2)CC1	NCI-H322M lung	band 1

Q. Record "COc1ccc(C2=Nc3c/c(=C\c4c(O)[nH]c5cc(Cl)ccc45)ccc3=N2)cc1" — which class?
A. band 3

Q. Record "COc1ccc2nc3ccccc3c(NCc3ccccc3)c2c1" — which class?
A. band 1

Q. Could you place "COc1ccc(-c2ccc(=O)oc2C#Cc2cc(OC)c(OC)c(OC)c2)cc1O" in its proper category? Many thanks.
A. band 1

Q. Lab note: which band did "CN1CCN(Cc2cc(NC(=O)c3cccc(C#Cc4cccc5[nH]nc(N)c45)c3)cc(C(F)(F)F)c2)CC1" land in?
A. band 1

Q. Pick a category. Item: COc1ccc(NC(=O)c2sc3nc(C)c(C(O)c4ccccc4)cc3c2N)cc1 (stereo not given)
A. band 2

Q. Which bin should I file "O=c1nc(Nc2nc3ccccc3s2)[nH]c(=O)c2ccccc12" under?
A. band 3

Q. Record "N#CCC1=NC(c2cccs2)=Nc2ccccc2S1" — which class?
A. band 3

###

# System: K-562 leukemia
# Test description: NCI-60 one-dose screen, 48 h (100 = growth as untreated, 0 = no growth, -100 = all killed)
# Condition info: 10 µM unless noted
About 83,000 compounds went through this panel and 20% of them were active in at least one assay; those are over-represented in the sample as a whole.
Measurement name: growth (%)
Numbers only; they are read as %.

Previously resolved entries follow.
CCOC(=O)C(=Cc1cccc(C#N)c1)C(=O)OCC 22.7
CCCCCCCC/C=C\CCCCCCCCOc1ccc(CC(=O)NCC[N+](C)(C)C)cc1 55.1
CCOC(=O)Cn1c(=O)c2c3ccccc3n(C)c2n2nnc(-c3ccccc3)c12 32.8
NNC(=S)N/N=C/c1ccccn1 19.4
O=C1C(Cl)=C(NCCN2CCOCC2)C(=O)c2ncccc21 -33.5

Q. Please supply the value of reported growth for the item "NS(=O)(=O)c1ccc(N/C=C/C(=O)c2cc3ccccc3oc2=O)cc1"
A. 94.8
